Below, each entry is listed with its recorded screen value.
B1: SNAP-FZD5 (Frizzled 5), wild type [human] / DEP_(414–507)-GFP, minimal DEP domain of DVL2 [human] (parent)
chain 1: GRGLSVHTDMASVTKAMAAPESGLEVRDRMWLKITIPNAFLGSDVVDWLYHHVEGFPERREARKYASGLLKAGLIRHTVNKITFSEQCYYVFGD
chain 2: ASKAPVCQEITVPMCRGIGYNLTHMPNQFNHDTQDEAGLEVHQFWPLVEIQCSPDLRFFLCSMYTPICLPDYHKPLPPCRSVCERAKAGCSPLMRQYGFAWPERMSCDRLPVLGRDAEVLCMDYNRSEATTAPPRPFPAKPTLPGPPGAPASGGECPAGGPFVCKCREPFVPILKESHPLYNKVRTGQVPNCAVPCYQPSFSADERTFATFWIGLWSVLCFISTSTTVATFLIDMERFRYPERPIIFLSACYLCVSLGFLVRLVVGHASVACSREHNHIHYETTGPALCTIVFLLVYFFGMASSIWWVILSLTWFLAAGMKWGNEAIAGYAQYFHLAAWLIPSVKSITALALSSVDGDPVAGICYVGNQNLNSLRGFVLGPLVLYLLVGTLFLLAGFVSLFRIRSVIKQGGTKTDKLEKLMIRIGIFTLLYTVPASIVVACYLYEQHYRESWEAALTCACPGHDTGQPRAKPEYWVLMLKYFMCLVVGITSGVWIWSGKTVESWRRFTSRCCCRPRRGHKSGGAMAAGDYPEASAALTGRTGPPGPAATYHKQVSLSHV

Variants of: B1
Test: FZD5-dependent PM recruitment of DEP-GFP (cell scoring)
Details: with DEP_(414–507)-GFP, 100 cells scored in each case, parent: 52, read off a plot

Known results for variants:
>  <VARIANT_NAME>
chain 2 R239A

>  <OBS_VALUE>
11 % of cells

$$$$
>  <VARIANT_NAME>
chain 2 K499A

>  <OBS_VALUE>
5 % of cells

$$$$
>  <VARIANT_NAME>
chain 2 S509A

>  <OBS_VALUE>
52 % of cells

$$$$
>  <VARIANT_NAME>
chain 2 E502A

>  <OBS_VALUE>
50 % of cells

$$$$

[Q] Which measured screen value value corresponds to chain 2 I403A ?
[A] 34 % of cells

[Q] Repeat with chain 2 K321A
[A] 45 % of cells

[Q] Repeat with chain 2 V406A
[A] 49 % of cells
